species: Oryctolagus cuniculus; assay: Inhibition of platelet aggregation using collagen as activating agent in rabbit platelet rich plasma (PRP); assay type: functional
pEC50: −log10 of the molar value.
Would you please tag the item 1 (yes) when its pEC50 is 7 or above, and 0 (no) when it is below?

Take a look at these entries with their results.
> print(dat)
                               entry.smiles  assigned.category
1  O=C(CCCCc1ccc2[nH]c3nc(O)nc-3cc2c1)N1CCCCC1             0 (no)
2  CN(C(=O)CCCCCOc1ccc2nc3[nH]c(=O)[nH]c3cc2c1)C1CCCCC1            1 (yes)
3     CC(=O)OCCCOc1ccc2[nH]c3nc(O)nc-3cc2c1            1 (yes)
4  Oc1nc2cc3cc(OCCCc4nnn[nH]4)ccc3[nH]c-2n1             0 (no)
5  O=C(CCCOc1ccc2[nH]c3nc(O)nc-3cc2c1)NC1CCCCCC1            1 (yes)
6  O=C(O)CN(C(=O)CCCOc1ccc2[nH]c3nc(O)nc-3cc2c1)C1CCCCC1             0 (no)
7  Cn1c(O)nc2nc3ccc(OCCCS(=O)(=O)c4ccccc4)cc3cc21             0 (no)

Next, consider the following molecule.
Q) Can O=C(O)CCCCOc1ccc2nc3[nH]c(=O)[nH]c3cc2c1 be said to have pEC50 at or above 7?
A) 0 (no)

---

target: Phosphodiesterase 3 (Homo sapiens, UniProt Q14432+Q13370); assay: Inhibition of human platelet PDE by inhibiting cyclic Adenosine monophosphate (cAMP) hydrolysis
Field: label. Allowed values: rule met (IC50 < 0.1 µM) or rule not met (IC50 >= 0.1 µM).

Consider the following illustrative entries.
> print(dat)
                            entry.smiles  assigned.category
1  CNC(=O)CCCOc1ccc2[nH]c3nc(O)nc-3cc2c1           rule met
2   CCOC(=O)CCc1ccc2[nH]c3nc(O)nc-3cc2c1       rule not met

Q) Determine if CC(=O)CCCOc1ccc2[nH]c3nc(O)nc-3cc2c1 shows IC50 strictly lower than 0.1 µM.
A) rule met

---

Examples of compounds with documented inhibition in vivo at 0.03 mg/kg follow.
test system: Canis familiaris; assay: Inhibition of coronary artery occlusion (mean area under flow time curve) in anesthetized dog at 0.03 mg/kg; format: functional; conditions: Canis lupus familiaris
Give just the numeric value; % need not be written.

Here is how some compounds turned out for inhibition in vivo at 0.03 mg/kg.
> print(dat)
                                   compound                   measured.metric  recorded.value
1  COC(=O)CCCOc1ccc2nc3[nH]c(=O)[nH]c3cc2c1  inhibition in vivo at 0.03 mg/kg             109
2  O=C1CN2Cc3c(ccc(Cl)c3Cl)N=C2N1 [ANAGRELIDE]  inhibition in vivo at 0.03 mg/kg              72
3  O=c1[nH]c2cc3cc(OCCCCS(=O)(=O)c4ccccc4)ccc3nc2[nH]1  inhibition in vivo at 0.03 mg/kg             115
4  CN(C(=O)CCCOc1ccc2nc3[nH]c(=O)[nH]c3cc2c1)C1CCCCC1  inhibition in vivo at 0.03 mg/kg             115

We next turn to a different compound, shown below.
Form: compound = O=C(O)CCCOc1ccc2[nH]c3nc(O)nc-3cc2c1 ; inhibition in vivo at 0.03 mg/kg = 115
